tested on: Murine leukemia (L1210) cells; assay: Cytostatic activity, L1210 cell proliferation; assay type: cell-based; conditions: mean ± SD of three experiments; highest concentration tested 250 µM; 2 days; read-out: Toxicity (IC50) L1210
Parameter: IC50. Scope: all listed entries.

compound=CN[C@H](CC(C)C)C(=O)N[C@H]1C(=O)N[C@@H](CC(N)=O)C(=O)N[C@H]2C(=O)N[C@H]3C(=O)N[C@H](C(=O)N[C@H](C(=O)NCC(=O)Nc4ccc(Cl)cc4Cl)c4cc(O)cc(O)c4-c4cc3ccc4O)[C@H](O)c3ccc(c(Cl)c3)Oc3cc2cc(c3O[C@@H]2O[C@H](CO)[C@@H](O)[C@H](O)[C@H]2O[C@H]2C[C@](C)(N)[C@H](O)[C@H](C)O2)Oc2ccc(cc2Cl)[C@H]1O value_measured="153 µM"
compound="CNC(CC(C)C)C(=O)NC1C(=O)NC(CC(N)=O)C(=O)NC2C(=O)NC3C(=O)NC(C(=O)NC(C(=O)NCC(=O)Nc4cccc(OC)c4)c4cc(O)cc(O)c4-c4cc3ccc4O)C(O)c3ccc(c(Cl)c3)Oc3cc2cc(c3OC2OC(CO)C(O)C(O)C2OC2CC(C)(N)C(O)C(C)O2)Oc2ccc(cc2Cl)C1O (stereo not drawn)" value_measured="> 250 µM"

# input for lookup
For `CN[C@H](CC(C)C)C(=O)N[C@H]1C(=O)N[C@@H](CC(N)=O)C(=O)N[C@H]2C(=O)N[C@H]3C(=O)N[C@H](C(=O)N[C@H](C(=O)NCCNC(=O)/C=C/c4ccc(OC)cc4)c4cc(O)cc(O)c4-c4cc3ccc4O)[C@H](O)c3ccc(c(Cl)c3)Oc3cc2cc(c3O[C@@H]2O[C@H](CO)[C@@H](O)[C@H](O)[C@H]2O[C@H]2C[C@](C)(N)[C@H](O)[C@H](C)O2)Oc2ccc(cc2Cl)[C@H]1O` on Murine leukemia (L1210) cells, measured IC50 was > 250 µM

====

tested on: MRSA KS1; assay: MIC, broth microdilution, MRSA KS1; type: cell-based, Staphylococcus aureus; details: MRSA KS1; ratio of MIC of vancomycin and MIC of analogue
Parameter: MIC-fold improvement vs. vancomycin. Scope: all listed entries.
Give the figure only, with no unit attached.

molecule=CN[C@H](CC(C)C)C(=O)N[C@H]1C(=O)N[C@@H](CC(N)=O)C(=O)N[C@H]2C(=O)N[C@H]3C(=O)N[C@H](C(=O)N[C@H](C(=O)NCC(=O)Nc4c(C)cc(C)cc4C)c4cc(O)cc(O)c4-c4cc3ccc4O)[C@H](O)c3ccc(c(Cl)c3)Oc3cc2cc(c3O[C@@H]2O[C@H](CO)[C@@H](O)[C@H](O)[C@H]2O[C@H]2C[C@](C)(N)[C@H](O)[C@H](C)O2)Oc2ccc(cc2Cl)[C@H]1O endpoint_name="MIC-fold improvement vs. vancomycin" value_measured=1
molecule="CNC(CC(C)C)C(=O)NC1C(=O)NC(CC(N)=O)C(=O)NC2C(=O)NC3C(=O)NC(C(=O)NC(C(=O)NCC(=O)Nc4ccc5c(c4)C(=O)c4ccccc4-5)c4cc(O)cc(O)c4-c4cc3ccc4O)C(O)c3ccc(c(Cl)c3)Oc3cc2cc(c3OC2OC(CO)C(O)C(O)C2OC2CC(C)(N)C(O)C(C)O2)Oc2ccc(cc2Cl)C1O (stereo not drawn)" endpoint_name="MIC-fold improvement vs. vancomycin" value_measured=8
molecule="CNC(CC(C)C)C(=O)NC1C(=O)NC(CC(N)=O)C(=O)NC2C(=O)NC3C(=O)NC(C(=O)NC(C(=O)NCCCNC(=O)c4ccc(-c5ccc(-c6ccccc6)cc5)cc4)c4cc(O)cc(O)c4-c4cc3ccc4O)C(O)c3ccc(c(Cl)c3)Oc3cc2cc(c3OC2OC(CO)C(O)C(O)C2OC2CC(C)(N)C(O)C(C)O2)Oc2ccc(cc2Cl)C1O (stereo not drawn)" endpoint_name="MIC-fold improvement vs. vancomycin" value_measured=1
molecule="C#Cc1ccc(NC(=O)CNC(=O)C2NC(=O)C3NC(=O)C(NC(=O)C4NC(=O)C(CC(N)=O)NC(=O)C(NC(=O)C(CC(C)C)NC)C(O)c5ccc(c(Cl)c5)Oc5cc4cc(c5OC4OC(CO)C(O)C(O)C4OC4CC(C)(N)C(O)C(C)O4)Oc4ccc(cc4Cl)C3O)c3ccc(O)c(c3)-c3c(O)cc(O)cc32)cc1 (stereo not drawn)" endpoint_name="MIC-fold improvement vs. vancomycin" value_measured=4
molecule="CNC(CC(C)C)C(=O)NC1C(=O)NC(CC(N)=O)C(=O)NC2C(=O)NC3C(=O)NC(C(=O)NC(C(=O)NCC(=O)Nc4ccc(C=Cc5ccc(N)cc5)cc4)c4cc(O)cc(O)c4-c4cc3ccc4O)C(O)c3ccc(c(Cl)c3)Oc3cc2cc(c3OC2OC(CO)C(O)C(O)C2OC2CC(C)(N)C(O)C(C)O2)Oc2ccc(cc2Cl)C1O (stereo not drawn)" endpoint_name="MIC-fold improvement vs. vancomycin" value_measured=0.5

# input for lookup
For CNC(CC(C)C)C(=O)NC1C(=O)NC(CC(N)=O)C(=O)NC2C(=O)NC3C(=O)NC(C(=O)NC(C(=O)NCC(=O)Nc4ccc(C(=O)c5ccccc5)cc4)c4cc(O)cc(O)c4-c4cc3ccc4O)C(O)c3ccc(c(Cl)c3)Oc3cc2cc(c3OC2OC(CO)C(O)C(O)C2OC2CC(C)(N)C(O)C(C)O2)Oc2ccc(cc2Cl)C1O (stereo not drawn) on MRSA KS1, measured MIC-fold improvement vs. vancomycin was 8

====

system: MRSA KS2; test: MIC, broth microdilution, MRSA KS2; format: cell-based, Staphylococcus aureus; conditions: Staphylococcus aureus MRSA KS2; read-out: MIC
Parameter: MIC. Scope: all listed entries.
Answer format: numeric, µM implied, no suffix.

Would you please look over these solved cases?
compound="CNC(CC(C)C)C(=O)NC1C(=O)NC(CC(N)=O)C(=O)NC2C(=O)NC3C(=O)NC(C(=O)NC(C(=O)NCC(=O)Nc4ccc5c(c4)C(=O)c4ccccc4-5)c4cc(O)cc(O)c4-c4cc3ccc4O)C(O)c3ccc(c(Cl)c3)Oc3cc2cc(c3OC2OC(CO)C(O)C(O)C2OC2CC(C)(N)C(O)C(C)O2)Oc2ccc(cc2Cl)C1O (stereo not shown) [Vanc-89]" unit_annotation=µM value_measured=0.10
compound="CN[C@H](CC(C)C)C(=O)N[C@H]1C(=O)N[C@@H](CC(N)=O)C(=O)N[C@H]2C(=O)N[C@H]3C(=O)N[C@H](C(=O)N[C@H](C(=O)NCC(=O)Nc4ccc(OC)c(OC)c4)c4cc(O)cc(O)c4-c4cc3ccc4O)[C@H](O)c3ccc(c(Cl)c3)Oc3cc2cc(c3O[C@@H]2O[C@H](CO)[C@@H](O)[C@H](O)[C@H]2O[C@H]2C[C@](C)(N)[C@H](O)[C@H](C)O2)Oc2ccc(cc2Cl)[C@H]1O [Vanc-7]" unit_annotation=µM value_measured=0.39
compound="CNC(CC(C)C)C(=O)NC1C(=O)NC(CC(N)=O)C(=O)NC2C(=O)NC3C(=O)NC(C(=O)NC(C(=O)NCCCNC(=O)c4ccc5cc(NS(=O)(=O)c6ccccc6)ccc5c4)c4cc(O)cc(O)c4-c4cc3ccc4O)C(O)c3ccc(c(Cl)c3)Oc3cc2cc(c3OC2OC(CO)C(O)C(O)C2OC2CC(C)(N)C(O)C(C)O2)Oc2ccc(cc2Cl)C1O (stereo not shown) [Vanc-63]" unit_annotation=µM value_measured=0.39
compound="CN[C@H](CC(C)C)C(=O)N[C@H]1C(=O)N[C@@H](CC(N)=O)C(=O)N[C@H]2C(=O)N[C@H]3C(=O)N[C@H](C(=O)N[C@H](C(=O)NCC(=O)Nc4ccc(C)cc4)c4cc(O)cc(O)c4-c4cc3ccc4O)[C@H](O)c3ccc(c(Cl)c3)Oc3cc2cc(c3O[C@@H]2O[C@H](CO)[C@@H](O)[C@H](O)[C@H]2O[C@H]2C[C@](C)(N)[C@H](O)[C@H](C)O2)Oc2ccc(cc2Cl)[C@H]1O [Vanc-4]" unit_annotation=µM value_measured=0.20

Looking up CNC(CC(C)C)C(=O)NC1C(=O)NC(CC(N)=O)C(=O)NC2C(=O)NC3C(=O)NC(C(=O)NC(C(=O)NCCCNC(=O)c4cc5cc(F)ccc5[nH]4)c4cc(O)cc(O)c4-c4cc3ccc4O)C(O)c3ccc(c(Cl)c3)Oc3cc2cc(c3OC2OC(CO)C(O)C(O)C2OC2CC(C)(N)C(O)C(C)O2)Oc2ccc(cc2Cl)C1O (stereo not shown) [Vanc-45] , I see its MIC listed as 0.39

Looking up CNC(CC(C)C)C(=O)NC1C(=O)NC(CC(N)=O)C(=O)NC2C(=O)NC3C(=O)NC(C(=O)NC(C(=O)NCC(=O)Nc4ccc(C(=O)c5ccccc5)cc4)c4cc(O)cc(O)c4-c4cc3ccc4O)C(O)c3ccc(c(Cl)c3)Oc3cc2cc(c3OC2OC(CO)C(O)C(O)C2OC2CC(C)(N)C(O)C(C)O2)Oc2ccc(cc2Cl)C1O (stereo not shown) [Vanc-88] , I see its MIC listed as 0.10

Looking up CCc1ccc(NC(=O)CNC(=O)[C@H]2NC(=O)[C@H]3NC(=O)[C@H](NC(=O)[C@@H]4NC(=O)[C@H](CC(N)=O)NC(=O)[C@H](NC(=O)[C@@H](CC(C)C)NC)[C@H](O)c5ccc(c(Cl)c5)Oc5cc4cc(c5O[C@@H]4O[C@H](CO)[C@@H](O)[C@H](O)[C@H]4O[C@H]4C[C@](C)(N)[C@H](O)[C@H](C)O4)Oc4ccc(cc4Cl)[C@H]3O)c3ccc(O)c(c3)-c3c(O)cc(O)cc32)cc1 [Vanc-13] , I see its MIC listed as 0.20

The values you see were collected from paper PMC6001238.
